- TESTED_TARGET: hGLP1R (Homo sapiens, UniProt P43220)
- Construct: expressed in transfected cells; host or cells: HEK-293 cells carrying a CRE-luciferase reporter gene
- Sequence (P43220 24-463): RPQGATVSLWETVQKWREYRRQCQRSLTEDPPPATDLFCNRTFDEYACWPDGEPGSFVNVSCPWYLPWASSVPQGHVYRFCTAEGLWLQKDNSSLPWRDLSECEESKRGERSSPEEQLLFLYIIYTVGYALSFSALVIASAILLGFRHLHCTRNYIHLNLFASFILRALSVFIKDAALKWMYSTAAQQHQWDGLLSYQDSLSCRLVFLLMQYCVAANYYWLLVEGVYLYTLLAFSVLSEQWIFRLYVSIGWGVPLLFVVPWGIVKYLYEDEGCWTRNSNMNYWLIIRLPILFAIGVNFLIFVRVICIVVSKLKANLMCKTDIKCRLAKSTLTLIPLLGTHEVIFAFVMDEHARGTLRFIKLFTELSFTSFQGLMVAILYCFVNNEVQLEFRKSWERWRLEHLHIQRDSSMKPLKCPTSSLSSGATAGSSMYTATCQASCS
- ASSAY_PROCEDURE: hGLP1R CreLuc reporter gene assay in 0.5% and 100% plasma
- Type: cell-based
- MEASUREMENT_SETUP: CreLuc reporter gene assay, 100% human plasma; read-out: hGLP1R 100% hP
Starred links: 1 amine or outer side, 2 acyl side, 3 side chain; linkers in the order of their positions; H or OH if unused. Positions of bridges follow the written chain, without caps; N, C: chain ends. Non-standard residues stand in square brackets, D forms with d. Groups on a side chain read outwards from the residue. Chains are numbered I, II in the order given. No end group written: not given here. *: point of attachment. C20 diacid = O=C(O)CCCCCCCCCCCCCCCCCCC(=O)*; C18 diacid = O=C(O)CCCCCCCCCCCCCCCCC(=O)*; γGlu = O=C(O)[C@H](CCC(=O)[*:2])N[*:1]; εLys = N[C@@H](CCCCN[*:1])C(=O)[*:2]; AEEA = NCCOCCOCC(=O)O; Aib = CC(C)(N)C(=O)O
Kindly state pEC50 for each of the entries shown.
Reminder that pEC50 is minus the log10 of a molar concentration.

*Q* Find the measured pEC50: item H-Y[Aib]EGTFTSDYSI[Aib]LEKQAQ[Aib]AFVEWLIK([εLys-γGlu-γGlu-γGlu-γGlu-γGlu-γGlu-C20 diacid])GGPSSGIELRHFLNHLTRQRY-NH2 [Compound 2] , target or system hGLP1R (Homo sapiens, UniProt P43220).
*A* 8.86

*Q* # query: pEC50 | item H-Y[Aib]EGTFTSDYSI[Aib]LEKQAQ[Aib]AFVEWLIK([AEEA-AEEA-γGlu-γGlu-γGlu-C18 diacid])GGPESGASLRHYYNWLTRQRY-NH2 [Compound 166] | system: hGLP1R (Homo sapiens, UniProt P43220)
*A* 8.37

*Q* Which measured pEC50 belongs to H-Y[Aib]EGTFTSDYSI[Aib]LEKQAQ[Aib]AFVEWLIK([εLys-γGlu-γGlu-γGlu-γGlu-γGlu-γGlu-C20 diacid])GGPSSAVSLRHYYNWLTRQRY-NH2 [Compound 33] , tested on hGLP1R (Homo sapiens, UniProt P43220)?
*A* 8.50

*Q* So what pEC50 did H-Y[Aib]EGTFTSDYSI[Aib]LEEQAQ[Aib]AFVQWLIK([εLys-γGlu-γGlu-γGlu-γGlu-γGlu-C20 diacid])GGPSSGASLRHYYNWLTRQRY-NH2 [Compound 34] get with hGLP1R (Homo sapiens, UniProt P43220)?
*A* 8.86

*Q* Param readout= pEC50; system= hGLP1R (Homo sapiens, UniProt P43220); entry= H-Y[Aib]EGTFTSDYSI[Aib]LEKQAQ[Aib]AFVEWLIK([AEEA-AEEA-γGlu-γGlu-γGlu-γGlu-γGlu-C18 diacid])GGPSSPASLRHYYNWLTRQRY-NH2 [Compound 140] ; returns value.
*A* 8.51

*Q* Tell me reported pEC50 for H-Y[Aib]EGTFTSDYSI[Aib]LEKQAQ[Aib]AFVEWLIK([εLys-γGlu-γGlu-γGlu-γGlu-γGlu-γGlu-C20 diacid])GGPSEYESLRHYYNWLTRQRY-NH2 [Compound 93] , tested with hGLP1R (Homo sapiens, UniProt P43220).
*A* 8.05

*Q* Item: H-Y[Aib]EGTFTSDYSI[Aib]LEKQAQ[Aib]AFVQWLIK([AEEA-AEEA-γGlu-γGlu-γGlu-γGlu-C18 diacid])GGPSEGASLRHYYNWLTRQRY-NH2 [Compound 270] Test system: hGLP1R (Homo sapiens, UniProt P43220) Read-out: pEC50 Value: ?
*A* 8.77

*Q* # query: pEC50 | item H-Y[Aib]EGTFTSDYSI[Aib]LEKQAQ[Aib]AFVQWLIK([AEEA-AEEA-γGlu-γGlu-γGlu-γGlu-C18 diacid])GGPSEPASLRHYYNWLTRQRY-NH2 [Compound 173] | system: hGLP1R (Homo sapiens, UniProt P43220)
*A* 8.51

*Q* Test system hGLP1R (Homo sapiens, UniProt P43220); read-out pEC50; what value for H-Y[Aib]EGTFTSDYSI[Aib]LELQAQ[Aib]AFVEWLIK([εLys-γGlu-γGlu-γGlu-γGlu-γGlu-γGlu-C20 diacid])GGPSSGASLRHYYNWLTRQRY-NH2 [Compound 209] ?
*A* 7.78

*Q* Report pEC50 for H-Y[Aib]EGTFTSDYSI[Aib]LEEQAQ[Aib]AFVEWLIK([εLys-AEEA-AEEA-γGlu-γGlu-γGlu-γGlu-C20 diacid])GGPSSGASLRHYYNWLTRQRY-NH2 [Compound 100] tested on hGLP1R (Homo sapiens, UniProt P43220).
*A* 8.66

*Q* Provide the documented pEC50 with hGLP1R (Homo sapiens, UniProt P43220) as the system for H-Y[Aib]EGTFTSDYSI[Aib]LEKQAE[Aib]AFVQWLIK([εLys-γGlu-γGlu-γGlu-γGlu-C18 diacid])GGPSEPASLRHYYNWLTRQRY-NH2 [Compound 54]
*A* 8.11

*Q* Request: pEC50, test system hGLP1R (Homo sapiens, UniProt P43220), entry H-Y[Aib]EGTFTSDYSI[Aib]LEKQAQ[Aib]AFVQWLIK([εLys-γGlu-γGlu-γGlu-γGlu-γGlu-C20 diacid])GGPSEYASLRHYYNWLTRQRY-NH2 [Compound 189]
*A* 7.99

*Q* Param readout = pEC50; param system = hGLP1R (Homo sapiens, UniProt P43220); param query = H-Y[Aib]EGTFTSDYSI[Aib]LEKQAQ[Aib]AFVEWLIK([εLys-γGlu-γGlu-γGlu-γGlu-γGlu-γGlu-C20 diacid])GGPSSGAS[Aib]RHYYNWLTRQR[dY]-NH2 [Compound 74] ; response: value
*A* 8.95

*Q* Could you share what pEC50 was measured for H-Y[Aib]EGTFTSDYSI[Aib]LEKQAQ[Aib]EFVEWLIK([εLys-γGlu-γGlu-γGlu-γGlu-γGlu-γGlu-γGlu-C20 diacid])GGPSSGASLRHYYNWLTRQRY-NH2 [Compound 88] , tested on hGLP1R (Homo sapiens, UniProt P43220)?
*A* 8.14

*Q* Query the reported pEC50 for hGLP1R (Homo sapiens, UniProt P43220); item: I: Y[Aib]EGTFTSDYSI[Aib]LEKQAQ[Aib]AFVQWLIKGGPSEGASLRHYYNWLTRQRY-NH2 / II: {C20 diacid}-EEEEE[εLys] (amide I:28-II:C) [Compound 240]
*A* 8.17

*Q* Enter reported pEC50 observed with hGLP1R (Homo sapiens, UniProt P43220) for H-Y[Aib]EGTFTSDYSI[Aib]LEKQAQ[Aib]AFVQWLIK([AEEA-AEEA-Glu-Glu-Glu-Glu-C18 diacid])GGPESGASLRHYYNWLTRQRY-NH2 [Compound 52]
*A* 8.50

*Q* # query: pEC50 | item H-Y[Aib]EGTFTSDYSI[Aib]LEKQAQ[Aib]AFVQWLIK([εLys-γGlu-γGlu-γGlu-γGlu-γGlu-C18 diacid])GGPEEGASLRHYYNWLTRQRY-NH2 [Compound 143] | system: hGLP1R (Homo sapiens, UniProt P43220)
*A* 8.37

*Q* For the record H-Y[Aib]EGTFTSDYSI[Aib]LEEQAQ[Aib]AFVEWLIK([εLys-γGlu-γGlu-γGlu-γGlu-γGlu-γGlu-C20 diacid])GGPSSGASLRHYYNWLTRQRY-NH2 [Compound 116] , what value of pEC50 is listed for hGLP1R (Homo sapiens, UniProt P43220)?
*A* 8.61

*Q* Notebook: pull reported pEC50 for hGLP1R (Homo sapiens, UniProt P43220), entry H-Y[Aib]EGTFTSDYSI[Aib]LEKQAQ[Aib]AFVQWLIK([AEEA-AEEA-γGlu-γGlu-γGlu-γGlu-γGlu-C18 diacid])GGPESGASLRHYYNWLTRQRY-NH2 [Compound 55]
*A* 8.38

*Q* Hello, I am looking for reported pEC50 with hGLP1R (Homo sapiens, UniProt P43220) for H-Y[Aib]EGTFTSDYSI[Aib]LEKQAQ[Aib]AFVQWLIK([AEEA-AEEA-Glu-Glu-Glu-Glu-C20 diacid])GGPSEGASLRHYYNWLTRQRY-NH2 [Compound 239] . Could you help?
*A* 8.32
